assay: A qHTS for Small Molecule Inhibitors of Shiga Toxin; details: Vero cells, Shiga toxin protein synthesis inhibition reporter; at 38.7 µM, hits give high values
Screen size: about 290,000 compounds; about 27,000 (9.3%) were called active. For the sample, actives were picked, then their nearest neighbours and some compounds at random.
Give measured inhibition for each item. Keep answers brief.
Please reply with the bare figure in % and do not write the unit itself.

Item under review: CCOC(=O)C(C)n1cnc2c(nnn2-c2ccc(F)cc2)c1=O (stereo not given) . Reported inhibition?
18.3

Item under review: "O=C(Cn1ncc2c3ccccc3n(Cc3ccccc3)c2c1=O)NCc1ccccn1" . Reported inhibition?
16.1

Item under review: Cc1ccc(C(=O)N2CC(=O)Nc3ccc(F)cc3C2c2ccc(F)cc2)cc1 (stereo not given) . Reported inhibition?
2.9

Item under review: "Cc1coc2c1c(C)cc1oc(=O)c(CC(=O)NCC(=O)N[C@H](C(=O)O)C(C)C)c(C)c12" . Reported inhibition?
-15

Item under review: "Nc1c(-c2cccc(Cl)c2)cnn1-c1cccc([N+](=O)[O-])c1" . Reported inhibition?
48.6

###

assay: A qHTS for Small Molecule Inhibitors of Shiga Toxin; conditions: Vero cells, Shiga toxin protein synthesis inhibition reporter; at 38.7 µM
Among all 290,000 compounds or so, about 27,000 (9.3%) were called active. Cut-off read from the data, not from the text of the source: active = inhibition mostly above about 28% (no sharp cut-off); inactive = mostly below about 43%. What follows is part of a selection rich in actives, with near analogues and random picks from the rest.
Give your call using only these classes: label 1 (active), label 0 (inactive)

Recorded test call requested for "COc1cccc(OC)c1C(=O)NC(=S)Nc1ccc(N2CCOCC2)c(Cl)c1"
label 0

Recorded test call requested for "Cc1ccc(C(=O)CSc2nc3ccccc3c(=O)n2N)o1"
label 0

Recorded test call requested for "Cc1ccc(S(=O)(=O)N2CCN(c3ccccc3)CC2)cc1C"
label 0

Recorded test call requested for "Oc1ccc(C2Nc3cccc4cccc(c34)N2)cc1"
label 0

Recorded test call requested for "Cc1ccc(C(=O)NNC(=O)OC(C)(C)C)c(Cl)c1"
label 1

Recorded test call requested for "COc1ccccc1CNC(=O)C1CCN(C(=O)[C@@H]2Cc3ccccc3CN2)CC1"
label 0

Recorded test call requested for "COc1ccc(N(Cc2cc3cc(OC)ccc3[nH]c2=O)S(C)(=O)=O)cc1"
label 0

Recorded test call requested for "COc1ccc(-c2noc(CN(C)S(=O)(=O)c3ccc(C)cc3)n2)cc1"
label 0

Recorded test call requested for "O=C(CCc1nnc2ccc(NCCCN3CCCC3=O)nn12)NCc1ccccc1Cl"
label 0

Recorded test call requested for "CCC(=O)Nc1ccc(C(=O)NNC(=O)c2ccc(Cl)cc2)cc1"
label 0

Recorded test call requested for "O=C(CN1CCN(c2ccccc2)CC1)Nc1ccc(F)cc1"
label 0

Recorded test call requested for CC1=C(C(=O)OC(C)(C)C)C(c2ccc(Br)cc2)NC(=O)N1CCCC(=O)O (stereo not drawn)
label 0

Recorded test call requested for "Cc1nc2ccccc2c(=O)n1-c1ccc(Cl)cc1Cl"
label 0

Recorded test call requested for "COc1ccc(CNc2cc(C)cc(C)c2)cc1OC"
label 0

Recorded test call requested for "O=C(NCc1cn2ccsc2n1)Nc1ccc(Cl)cc1"
label 0

Recorded test call requested for "CCOc1ccc(NC(=O)NNC(=O)c2ccc(Cl)cc2Cl)cc1"
label 0

Recorded test call requested for "COc1ccc(-c2noc(CSc3ccc(C)cc3)n2)cc1"
label 0

Recorded test call requested for "COc1cccc(NC(=S)NC(=O)c2c(Cl)c(C)nn2C)c1"
label 1

Recorded test call requested for "O=C(C1CCN(Cc2ccc(Cl)cc2)CC1)N1CCN(Cc2ccc3c(c2)OCO3)CC1"
label 0

Recorded test call requested for COc1ccc(-n2ncc3c2CC(C)(C)CC3NC(=O)CCc2c(C)nn(C)c2C)cc1 (stereo not drawn)
label 0

Recorded test call requested for "Cc1nn(C)c(C(=O)NNC(=S)NC2CCCCC2)c1Cl"
label 0

Recorded test call requested for "CCCc1nc(-c2cc3cc(C)ccc3[nH]c2=O)no1"
label 0

Recorded test call requested for "COc1ccccc1CNS(=O)(=O)c1ccc(C)cc1"
label 0

###

test: A qHTS for Small Molecule Inhibitors of Shiga Toxin; settings: Vero cells, Shiga toxin protein synthesis inhibition reporter; at 38.7 µM, hits give high values
The campaign covered roughly 290,000 compounds. About 27,000 (9.3%) were called active. The entries come from a sample that favours actives as a whole.
Measurement Label: inhibition (%)
Please reply with the bare figure in % and do not write the unit itself.

Item under review: "O=S(=O)(Cc1nnnn1-c1ccc(Br)cc1)c1ccc(F)cc1" . Reported inhibition?
-1.52

Item under review: Cc1cccc(-c2nc(CS(=O)CC(=O)NC(C)CCc3ccccc3)c(C)o2)c1 (centres undefined) . Reported inhibition?
-4.68

Item under review: "C/C(=N\NC(=O)c1nc(C)cc(C)n1)c1ccccc1" . Reported inhibition?
86.5

Item under review: "CCOC(=O)CNc1nc(Cl)nc(Nc2ccc(OC)cc2OC)n1" . Reported inhibition?
26.8

Item under review: "CC(=O)Nc1cccc(NC(=O)CSc2nccn2Cc2ccc(F)cc2)c1" . Reported inhibition?
-6.32

Item under review: "Cc1cnc(C(=O)Oc2cccc(Cl)c2Cl)cn1" . Reported inhibition?
-6.08

Item under review: "Cc1[nH]c2ccccc2c1SCC(=O)Nc1nccs1" . Reported inhibition?
63.6

Item under review: CN(C(=O)C1CCOC1)c1nnc(-c2cccnc2)s1 (centres undefined) . Reported inhibition?
22

Item under review: "CN(CCO)c1ccc(/C=N/Nc2nncc3ccccc23)cc1" . Reported inhibition?
41.9

Item under review: "Cc1cc(C(F)(F)F)nc(SCC(=O)Nc2nccs2)n1" . Reported inhibition?
-9.67

Item under review: "CC(=O)c1cc(C#N)c(SCC(=O)C(C)(C)C)nc1C" . Reported inhibition?
89.1

Item under review: "Cc1cc(=O)[nH]c(N/N=C/c2c(C)nn(-c3ccccc3Cl)c2Cl)n1" . Reported inhibition?
47

Item under review: "CCOC(=O)CNc1nc(Cl)nc(Nc2ccccc2)n1" . Reported inhibition?
65.7

Item under review: "COCCN1CCn2c(nc3cc(NS(C)(=O)=O)ccc32)C1" . Reported inhibition?
-2.98

Item under review: "COc1cc(/C=N/Nc2nn3cnnc3c3ccccc23)cc(OC)c1OC" . Reported inhibition?
18.6

Item under review: "CCn1c(SCC(=O)Nc2nccs2)nnc1-c1ccncc1" . Reported inhibition?
-7.47

Item under review: "C/C(=N\Nc1nncc2ccccc12)c1ccc(Cl)c([N+](=O)[O-])c1" . Reported inhibition?
59.8

Item under review: "O=S(=O)(NCCCCCCNS(=O)(=O)c1c(F)cccc1F)c1ccc2c(c1)OCCO2" . Reported inhibition?
-3.9

Item under review: "COc1cc(OC)c(C(=O)Nc2ccc(N(C)C)cc2)cc1OC" . Reported inhibition?
77.9

Item under review: "COc1cccc(-c2nnc(N(C)C(=O)c3ccno3)s2)c1" . Reported inhibition?
30.2

Item under review: "NC(=O)c1cc2ccccc2o/c1=N/NC(=O)c1cccc(F)c1" . Reported inhibition?
13.8

Item under review: CCC(C)N1CC(=O)N2Cc3[nH]c4ccccc4c3C[C@H]2C1=O (some centres undefined) . Reported inhibition?
-5.65

Item under review: "COc1cc(C(=O)NCc2ccncc2)cc(Br)c1OCc1ccccc1" . Reported inhibition?
-9.85

Item under review: CC(C)C(=O)N1CC(=O)Nc2ccc(F)cc2C1c1ccc(F)cc1 (centres undefined) . Reported inhibition?
-3.75

###

test: A qHTS for Small Molecule Inhibitors of Shiga Toxin; details: Vero cells, Shiga toxin protein synthesis inhibition reporter; at 38.7 µM, hits give high values
Hit rate of the full screen: of about 290,000 compounds, about 27,000 (9.3%) were called active. The entries come from a sample that favours actives as a whole.
Measurement Label: inhibition (%)
Please reply with the bare figure in % and do not write the unit itself.

Item under review: "CC(=O)Nc1ccccc1C(=O)OCC(=O)c1cccc2ccccc12" . Reported inhibition?
-4.88

Item under review: "O=C(Cc1coc2ccc3ccccc3c12)NCc1cccs1" . Reported inhibition?
1.44

Item under review: "CC(=O)N1CCOc2ccc(S(=O)(=O)N3CCN(c4cccc(C(F)(F)F)c4)CC3)cc21" . Reported inhibition?
-3.75

Item under review: "Cc1ccc2c(CC(=O)NCc3cccs3)coc2c1" . Reported inhibition?
77.5

Item under review: "CCOC(=O)CSc1nnc(CNc2ccc(F)cc2)o1" . Reported inhibition?
-20.4

Item under review: "COc1ccccc1OCCOc1ccc(/C=N/n2cnnc2)cc1" . Reported inhibition?
-21.9

Item under review: "COc1ccc(CCNS(=O)(=O)c2cccc([N+](=O)[O-])c2)cc1" . Reported inhibition?
-8.39

Item under review: "CC(C)N1CCc2c(sc(NC(=O)Cc3ccccc3)c2C#N)C1" . Reported inhibition?
2.11

Item under review: "O=c1ccc2cc(S(=O)(=O)Nc3ccccc3F)ccc2o1" . Reported inhibition?
-8.1

Item under review: "O=C(OCc1ccc(Br)cc1)c1cccc(-c2nnc(-c3ccccc3)o2)c1" . Reported inhibition?
31.1

Item under review: "COc1cccc(Nc2nc(N)c([N+](=O)[O-])c(NCc3ccco3)n2)c1" . Reported inhibition?
45.8

Item under review: "CC1CCN(CC(=O)c2c[nH]c3ccccc23)CC1" . Reported inhibition?
15.1

Item under review: "COCCCNc1nc2c(-c3cccc(C)c3)nnn2c2ccc(Cl)cc12" . Reported inhibition?
9.32

Item under review: CCCCC(CC)CNCc1cccn1CCN1CCOCC1 (centres undefined) . Reported inhibition?
-23.2

Item under review: "Cc1cc(C)cc(N(CC(=O)NC2CCCC2)C(=O)CCC(=O)Nc2cc(C)on2)c1" . Reported inhibition?
-3.5

Item under review: CCc1ccc(OCC(O)CN2CCN(CCO)CC2)cc1 (centres undefined) . Reported inhibition?
-8.28

Item under review: "O=C(O)c1ccccc1C(=O)NC1=NN(c2ccccc2)CC1" . Reported inhibition?
3.05

Item under review: "O=C(OCc1ccc(-c2ccccc2)cc1)c1cccc(O)c1" . Reported inhibition?
80.8

Item under review: CCn1nc(C(=O)OCC(=O)N2c3ccccc3CC2C)c2ccccc2c1=O (centres undefined) . Reported inhibition?
-10.9

Item under review: Cc1ccn(CCC(=O)N2c3ccccc3CC2C)n1 (centres undefined) . Reported inhibition?
-3.39

Item under review: "COc1ccc(-c2ocnc2C(=O)Nc2ccc3c(c2)CCC3)cc1" . Reported inhibition?
-10.8

Item under review: "C(=N\n1cnnc1)/c1cccnc1" . Reported inhibition?
2.15

Item under review: "COc1ccc(C)cc1NC(=O)CNCc1cccs1" . Reported inhibition?
-6.47

Item under review: "Cc1ccc(CNS(=O)(=O)c2ccc3c(c2)N(C)CCO3)cc1" . Reported inhibition?
-2.13
